Target: T1, purified human CD117 ectodomain (R&D Systems #332-SR) (human, UniProt P10721 26-524)
T1 construct: extracellular domain; Bought protein; also called c-kit; purified recombinant human CD117 ectodomain
T1 sequence (P10721 26-524): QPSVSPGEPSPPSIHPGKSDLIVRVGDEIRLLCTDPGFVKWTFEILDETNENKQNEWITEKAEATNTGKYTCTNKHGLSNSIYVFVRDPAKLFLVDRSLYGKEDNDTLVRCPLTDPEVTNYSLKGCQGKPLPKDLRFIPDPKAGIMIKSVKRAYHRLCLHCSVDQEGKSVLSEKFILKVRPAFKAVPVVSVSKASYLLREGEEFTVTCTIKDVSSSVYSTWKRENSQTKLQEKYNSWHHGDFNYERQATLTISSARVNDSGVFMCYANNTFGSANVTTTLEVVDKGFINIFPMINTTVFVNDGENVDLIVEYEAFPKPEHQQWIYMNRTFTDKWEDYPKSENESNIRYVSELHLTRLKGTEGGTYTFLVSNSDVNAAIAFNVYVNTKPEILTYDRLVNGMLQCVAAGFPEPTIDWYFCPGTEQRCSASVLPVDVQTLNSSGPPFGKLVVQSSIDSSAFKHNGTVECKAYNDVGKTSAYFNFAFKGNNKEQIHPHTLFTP
Assay: BLI, purified IgG on sensor, soluble ectodomain; apparent monovalent
binders and their reported kon
assay metric: kon (M⁻¹ s⁻¹)

{"binder": "HC-11/LC-11 (Ab11) (antibody, IgG1, V domains shown, Purified IgG; also called 011) VH: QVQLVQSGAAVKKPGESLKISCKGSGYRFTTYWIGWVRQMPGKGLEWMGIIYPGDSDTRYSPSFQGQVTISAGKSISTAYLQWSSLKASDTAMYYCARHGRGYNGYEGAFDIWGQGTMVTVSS VL: AIQLTQSPSSLSASVGDRVTITCRASQSIGDYLTWYQQKPGKAPKVLIYGASSLQSGVPPRFSGSGSGTDFTLTVSSLQPEDFATYYCQQLNSYPLTFGGGTKLEIK", "measured result": 336000}
{"binder": "HC-15/LC-15 (Ab15) (antibody, IgG1, V domains shown, Purified IgG; also called 015) VH: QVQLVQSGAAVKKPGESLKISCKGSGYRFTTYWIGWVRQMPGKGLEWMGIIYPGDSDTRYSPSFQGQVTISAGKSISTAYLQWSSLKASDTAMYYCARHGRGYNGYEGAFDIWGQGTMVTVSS VL: AIQLTQSPSSLSASVGDRVTITCRASQGIGSALAWYQQKPGIGPKLLIYDASTLESGVPARFSGSGSRTDFTLTITSLQPEDFATYYCQQFNGYPLTFGGGTKLEIK", "measured result": 265000}
{"binder": "HC-24/LC-24 (Ab24) (antibody, IgG1, V domains shown, From rat immunization/hybridoma; purified IgG in BLI; also called 024) VH: EVQLVESGGGLVQSGRSLKLSCAASGFTVSDYYMAWVRQAPTKGLEWVATINYDGSTTYHRDSVKGRFTISRDNAKSTLYLQMDSLRSEDTATYYCARHGDYGYHYGAYYFDYWGQGVMVTVSS VL: DIVLTQSPALAVSLGQRATISCRASQTVSLSGYNLIHWYQQRTGQQPKLLIYRASNLAPGIPARFSGSGSGTDFTLTISPVQSDDIATYYCQQSRESWTFGGGTNLEMK", "measured result": 111000}
